PROTOCOL: in vitro
PARTICULARS: human, fresh human red blood cells (washed), pH 7.4
Non-standard residues stand in square brackets, D forms with d. Residues, ends and D or L forms follow the SMILES beside them. Dip = N[C@H](C(=O)O)C(c1ccccc1)c1ccccc1; 2Nal = N[C@@H](Cc1ccc2ccccc2c1)C(=O)O
Property: HC50 at 0.5 h; scope: individual molecules
Output spec: scalar in µg/mL, unitless text.

| MOLECULE | OBSERVED |
| --- | --- |
| NCCCC[C@@H]1NC(=O)[C@H](CCCCN)NC(=O)[C@H](CCCCN)NC(=O)[C@H](Cc2ccc3ccccc3c2)NC(=O)[C@H](Cc2ccc3ccccc3c2)NC(=O)[C@H](Cc2c[nH]c3ccccc23)NC(=O)[C@H](CCCCN)NC1=O [IFX-126, c[Lys-Lys-Lys-Lys-Trp-NaI-NaI]] (cyclo([2Nal][2Nal]KKKKW)) | 610 |
| N=C(N)NCCC[C@@H](N)C(=O)N[C@H](CCCNC(=N)N)C(=O)N[C@H](CCCNC(=N)N)C(=O)N[C@H](CCCNC(=N)N)C(=O)N[C@H](C(=O)N[C@H](C(=O)N[C@H](C(=O)O)C(c1ccccc1)c1ccccc1)C(c1ccccc1)c1ccccc1)C(c1ccccc1)c1ccccc1 [IFX-073-1] (H-[dR][dR][dR][dR][Dip][Dip][Dip]-OH) | 410 |

Please examine the following record next.
Query: Please look at this molecule and report its HC50 at 0.5 h: N=C(N)NCCC[C@@H]1NC(=O)[C@H](CCCNC(=N)N)NC(=O)[C@H](CCCNC(=N)N)NC(=O)[C@@H](CCCNC(=N)N)NC(=O)[C@H](Cc2ccc3ccccc3c2)NC(=O)[C@H](Cc2ccc3ccccc3c2)NC(=O)[C@H](Cc2c[nH]c3ccccc23)NC1=O [IFX-108, c[arg-Arg-Arg-Arg-Trp-NaI-NaI]] (cyclo([2Nal][2Nal][dR]RRRW))
Result: 350

---

Test system: human red blood cells
Parameters: unit not given beside the values
Non-standard residues stand in square brackets, D forms with d. Residues, ends and D or L forms follow the SMILES beside them. 2Nal = N[C@@H](Cc1ccc2ccccc2c1)C(=O)O
QUANTITY KIND: HC50
// print number alone

Query: Report HC50 for N=C(N)NCCC[C@H](NC(=O)[C@H](CCCNC(=N)N)NC(=O)[C@@H](N)CCCNC(=N)N)C(=O)N[C@@H](Cc1ccc2ccccc2c1)C(=O)N[C@@H](Cc1ccc2ccccc2c1)C(=O)N[C@@H](Cc1c[nH]c2ccccc12)C(=O)O [IFX-025-1, NH2-R-R-R-NaI-NaI-Trp-OH] (H-RRR[2Nal][2Nal]W-OH)
Result: 375

Query: Entry N=C(N)NCCC[C@H](NC(=O)[C@H](CCCNC(=N)N)NC(=O)[C@@H](N)CCCNC(=N)N)C(=O)N[C@@H](Cc1ccc2ccccc2c1)C(=O)N[C@@H](Cc1c[nH]c2ccccc12)C(=O)N[C@@H](Cc1ccc2ccccc2c1)C(=O)O [IFX-024-1, NH2-R-R-R-NaI-Trp-NaI-OH] (H-RRR[2Nal]W[2Nal]-OH) needs its HC50 filled in; supply it.
Result: 410

Query: Fill in reported HC50 for this entry: N=C(N)NCCC[C@@H]1NC(=O)[C@H](CCCNC(=N)N)NC(=O)[C@H](Cc2ccc3ccccc3c2)NC(=O)[C@H](Cc2ccc3ccccc3c2)NC(=O)[C@H](CCCNC(=N)N)NC(=O)[C@H](CCCNC(=N)N)NC(=O)[C@H](Cc2ccc3ccccc3c2)NC1=O [IFX-019, c[Arg-Arg-NaI-NaI-Arg-Arg-NaI]] (cyclo(R[2Nal]RR[2Nal][2Nal]R))
Result: 325

---

Some compounds, each annotated with its measured HC50.
System: human red blood cells
Design: unit not given beside the values
Non-standard residues stand in square brackets, D forms with d. Residues, ends and D or L forms follow the SMILES beside them. Dip = N[C@H](C(=O)O)C(c1ccccc1)c1ccccc1; 2Nal = N[C@@H](Cc1ccc2ccccc2c1)C(=O)O
# answer = number (no unit)

Consider the following illustrative entries.
| COMPOUND | OBSERVED |
| --- | --- |
| N=C(N)NCCC[C@H](NC(=O)[C@H](CCCNC(=N)N)NC(=O)[C@@H](N)CCCNC(=N)N)C(=O)N[C@@H](CCCNC(=N)N)C(=O)N[C@H](C(=O)N[C@H](C(=O)N[C@H](C(=O)N[C@H](C(=O)O)C(c1ccccc1)c1ccccc1)C(c1ccccc1)c1ccccc1)C(c1ccccc1)c1ccccc1)C(c1ccccc1)c1ccccc1 [IFX-005-1, NH2-Arg-Arg-Arg-Arg-Dip-Dip-Dip-Dip-OH] (H-RRRR[Dip][Dip][Dip][Dip]-OH) | 135 |
| N=C(N)NCCC[C@H](NC(=O)[C@H](CCCNC(=N)N)NC(=O)[C@@H](N)CCCNC(=N)N)C(=O)N[C@H](C(=O)N[C@H](C(=O)N[C@@H](Cc1c[nH]c2ccccc12)C(=O)O)C(c1ccccc1)c1ccccc1)C(c1ccccc1)c1ccccc1 [IFX-022-1, NH2-R-R-R-Dip-Dip-Trp-OH] (H-RRR[Dip][Dip]W-OH) | 380 |
| N=C(N)NCCC[C@@H]1NC(=O)[C@H](CCCNC(=N)N)NC(=O)[C@H](CCCNC(=N)N)NC(=O)[C@@H](Cc2c[nH]c3ccccc23)NC(=O)[C@@H](Cc2c[nH]c3ccccc23)NC(=O)[C@@H](Cc2c[nH]c3ccccc23)NC(=O)[C@@H](Cc2c[nH]c3ccccc23)NC(=O)[C@H](CCCNC(=N)N)NC1=O [IFX-035, c[Arg-Arg-Arg-Arg-trp-trp-trp-trp]] (cyclo(RRRR[dW][dW][dW][dW])) | 670 |
| N=C(N)NCCC[C@H](NC(=O)[C@H](CCCNC(=N)N)NC(=O)[C@H](CCCNC(=N)N)NC(=O)[C@@H](N)CCCNC(=N)N)C(=O)N[C@@H](Cc1ccc2ccccc2c1)C(=O)N[C@@H](Cc1ccc2ccccc2c1)C(=O)N[C@@H](Cc1c[nH]c2ccccc12)C(=O)O [IFX-031-1, NH2-R-R-R-R-NaI-NaI-Trp-OH] (H-RRRR[2Nal][2Nal]W-OH) | 450 |
| N=C(N)NCCC[C@H](NC(=O)[C@H](CCCNC(=N)N)NC(=O)[C@H](CCCNC(=N)N)NC(=O)[C@@H](N)CCCNC(=N)N)C(=O)N[C@@H](Cc1c[nH]c2ccccc12)C(=O)N[C@H](C(=O)N[C@H](C(=O)O)C(c1ccccc1)c1ccccc1)C(c1ccccc1)c1ccccc1 [IFX-026-1, NH2-R-R-R-R-Trp-Dip-Dip-OH] (H-RRRRW[Dip][Dip]-OH) | 430 |

Next item in the queue.
Query: Find the measured HC50 of N=C(N)NCCC[C@H](NC(=O)[C@H](CCCNC(=N)N)NC(=O)[C@H](CCCNC(=N)N)NC(=O)[C@@H](N)CCCNC(=N)N)C(=O)N[C@@H](Cc1ccc2ccccc2c1)C(=O)N[C@@H](Cc1c[nH]c2ccccc12)C(=O)N[C@@H](Cc1ccc2ccccc2c1)C(=O)O [IFX-030-1, NH2-R-R-R-R-NaI-Trp-NaI-OH] (H-RRRR[2Nal]W[2Nal]-OH) and report it.
Result: 430

---

Documented MIC P. aeruginosa ATCC 27883 across a set of molecules
Test system: Pseudomonas aeruginosa (ATCC 27883)
PARTICULARS: ATCC 27883
Non-standard residues stand in square brackets, D forms with d. Residues, ends and D or L forms follow the SMILES beside them. dDip = N[C@@H](C(=O)O)C(c1ccccc1)c1ccccc1; Dip = N[C@H](C(=O)O)C(c1ccccc1)c1ccccc1; d2Nal = N[C@H](Cc1ccc2ccccc2c1)C(=O)O
Report the figure in µg/mL without appending any unit label.

The examples below pair each entry with its known result.
| MOLECULE | TARGET UNDER TEST | MIC P. aeruginosa ATCC 27883 / µg/mL |
| --- | --- | --- |
| N=C(N)NCCC[C@H](NC(=O)[C@H](CCCNC(=N)N)NC(=O)[C@@H](N)CCCNC(=N)N)C(=O)N[C@@H](CCCNC(=N)N)C(=O)N[C@H](C(=O)N[C@@H](Cc1c[nH]c2ccccc12)C(=O)N[C@H](C(=O)O)C(c1ccccc1)c1ccccc1)C(c1ccccc1)c1ccccc1 [IFX-027-1, NH2-R-R-R-R-Dip-Trp-Dip-OH] (H-RRRR[Dip]W[Dip]-OH) | Pseudomonas aeruginosa (ATCC 27883) | 25 |
| N=C(N)NCCC[C@H](NC(=O)[C@H](CCCNC(=N)N)NC(=O)[C@@H](N)CCCNC(=N)N)C(=O)N[C@H](C(=O)N[C@H](C(=O)N[C@@H](Cc1c[nH]c2ccccc12)C(=O)O)C(c1ccccc1)c1ccccc1)C(c1ccccc1)c1ccccc1 [IFX-022-1, NH2-R-R-R-Dip-Dip-Trp-OH] (H-RRR[Dip][Dip]W-OH) | Pseudomonas aeruginosa (ATCC 27883) | 50 |

Query: With Pseudomonas aeruginosa (ATCC 27883) as the test system, provide measured MIC P. aeruginosa ATCC 27883 for this molecule: N=C(N)NCCC[C@H](NC(=O)[C@@H](CCCNC(=N)N)NC(=O)[C@@H](N)CCCNC(=N)N)C(=O)N[C@H](CCCNC(=N)N)C(=O)N[C@@H](Cc1c[nH]c2ccccc12)C(=O)N[C@H](Cc1ccc2ccccc2c1)C(=O)N[C@H](Cc1ccc2ccccc2c1)C(=O)O [IFX-111-1] (H-R[dR]R[dR]W[d2Nal][d2Nal]-OH)
Result: 25

Query: Return reported MIC P. aeruginosa ATCC 27883 for target or system Pseudomonas aeruginosa (ATCC 27883), item N=C(N)NCCC[C@H]1NC(=O)[C@@H](CCCNC(=N)N)NC(=O)[C@@H](CCCNC(=N)N)NC(=O)[C@@H](Cc2ccc3ccccc3c2)NC(=O)[C@@H](Cc2c[nH]c3ccccc23)NC(=O)[C@@H](Cc2ccc3ccccc3c2)NC(=O)[C@@H](CCCNC(=N)N)NC1=O [IFX-142, c[arg-arg-arg-arg-naI-trp-naI]] (cyclo([dR][dR][dR][dR][d2Nal][dW][d2Nal])) .
Result: 32

Query: Under Pseudomonas aeruginosa (ATCC 27883), report MIC P. aeruginosa ATCC 27883 for N=C(N)NCCC[C@H](NC(=O)[C@H](CCCNC(=N)N)NC(=O)[C@@H](N)CCCNC(=N)N)C(=O)N[C@@H](CCCNC(=N)N)C(=O)N[C@@H](C(=O)N[C@@H](C(=O)N[C@@H](C(=O)O)C(c1ccccc1)c1ccccc1)C(c1ccccc1)c1ccccc1)C(c1ccccc1)c1ccccc1 [IFX-072-1] (H-RRRR[dDip][dDip][dDip]-OH)
Result: 12.5
